Hello, the source for this data is patent US8557552B2, in case you need it.

Assayed System: bovine eNOS (Bos taurus, UniProt P29473)
Sequence (P29473 whole entry): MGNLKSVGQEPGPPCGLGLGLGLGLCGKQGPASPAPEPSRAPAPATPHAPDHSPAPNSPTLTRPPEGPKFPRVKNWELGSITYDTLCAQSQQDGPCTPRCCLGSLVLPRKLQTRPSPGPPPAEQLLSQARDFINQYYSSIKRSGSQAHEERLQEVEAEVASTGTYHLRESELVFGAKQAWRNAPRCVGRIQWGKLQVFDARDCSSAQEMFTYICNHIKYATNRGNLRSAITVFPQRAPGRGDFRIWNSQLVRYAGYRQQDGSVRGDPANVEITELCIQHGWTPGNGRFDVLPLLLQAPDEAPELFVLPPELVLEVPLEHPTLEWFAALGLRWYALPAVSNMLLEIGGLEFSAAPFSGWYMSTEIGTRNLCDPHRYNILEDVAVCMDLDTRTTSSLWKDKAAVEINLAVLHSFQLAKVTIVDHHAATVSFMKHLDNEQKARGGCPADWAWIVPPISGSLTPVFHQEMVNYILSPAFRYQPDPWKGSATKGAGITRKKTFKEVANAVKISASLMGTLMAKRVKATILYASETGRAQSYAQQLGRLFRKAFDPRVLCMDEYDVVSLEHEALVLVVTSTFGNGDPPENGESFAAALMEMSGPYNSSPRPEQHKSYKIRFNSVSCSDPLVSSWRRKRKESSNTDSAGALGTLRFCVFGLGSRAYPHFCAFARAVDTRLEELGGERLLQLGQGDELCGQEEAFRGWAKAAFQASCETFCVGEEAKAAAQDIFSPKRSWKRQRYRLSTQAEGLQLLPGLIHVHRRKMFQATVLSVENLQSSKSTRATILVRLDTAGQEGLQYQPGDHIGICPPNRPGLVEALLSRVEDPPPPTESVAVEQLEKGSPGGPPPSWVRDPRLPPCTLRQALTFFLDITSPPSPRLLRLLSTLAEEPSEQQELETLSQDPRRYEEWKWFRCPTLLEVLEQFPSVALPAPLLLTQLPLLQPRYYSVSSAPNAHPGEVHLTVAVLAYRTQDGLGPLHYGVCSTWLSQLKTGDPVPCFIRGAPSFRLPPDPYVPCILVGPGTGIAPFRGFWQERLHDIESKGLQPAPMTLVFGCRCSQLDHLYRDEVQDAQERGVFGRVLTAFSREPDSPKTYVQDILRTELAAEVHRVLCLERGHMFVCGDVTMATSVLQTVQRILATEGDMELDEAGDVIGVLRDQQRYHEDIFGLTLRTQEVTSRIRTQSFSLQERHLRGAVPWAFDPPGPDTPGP
Assay Summary: NOS enzyme inhibition assay, eNOS
Assay type: biochemical
Test Parameters: bovine eNOS, KM 1.7 μM; Ki = IC50/(1 + [S]/KM); Table 2
pKi: −log10 of the molar value.
Consider the following compounds and their measured pKi readings.
Measured Parameter: pKi

# Compound Structure, Value
measured = [
    ("Cc1cc(N)nc(C[C@H]2CNC[C@H]2OCCC/C=C/c2cccc(F)c2)c1.Cl.Cl", 4.16),
    ("Cc1cc(N)nc(C[C@@H]2CNC[C@@H]2OCCC/C=C/c2cccc(F)c2)c1", 4.11),
    ("Cc1cc(N)nc(C[C@@H]2CNC[C@@H]2OCCCCOc2cc(F)cc(Cl)c2)c1.Cl.Cl", 5.36),
    ("Cc1cc(N)nc(C[C@@H]2CNC[C@@H]2OCCCCOc2cc(F)cc(F)c2)c1.Cl.Cl", 3.84),
    ("Cc1cc(N)nc(C[C@H]2CNC[C@H]2OCCCCNc2ccccn2)c1.Cl.Cl.Cl", 5.25),
    ("Cc1cc(N)nc(C[C@@H]2CNC[C@@H]2OCCCCNc2ccccn2)c1.Cl.Cl.Cl", 5.86),
    ("Cc1cc(N)nc(C[C@@H]2CNC[C@@H]2OCCCCCc2cccc(F)c2)c1.Cl.Cl", 4.47),
    ("Cc1cc(N)nc(C[C@H]2CNC[C@H]2OCCCCCc2cccc(F)c2)c1.Cl.Cl", 4.47),
    ("Cc1cc(N)nc(C[C@@H]2CNC[C@@H]2OCCCCCc2cc(F)cc(Cl)c2)c1", 4.45),
]

----------
Assayed System: rat nNOS (Rattus norvegicus)
Sequence (P29476 whole entry): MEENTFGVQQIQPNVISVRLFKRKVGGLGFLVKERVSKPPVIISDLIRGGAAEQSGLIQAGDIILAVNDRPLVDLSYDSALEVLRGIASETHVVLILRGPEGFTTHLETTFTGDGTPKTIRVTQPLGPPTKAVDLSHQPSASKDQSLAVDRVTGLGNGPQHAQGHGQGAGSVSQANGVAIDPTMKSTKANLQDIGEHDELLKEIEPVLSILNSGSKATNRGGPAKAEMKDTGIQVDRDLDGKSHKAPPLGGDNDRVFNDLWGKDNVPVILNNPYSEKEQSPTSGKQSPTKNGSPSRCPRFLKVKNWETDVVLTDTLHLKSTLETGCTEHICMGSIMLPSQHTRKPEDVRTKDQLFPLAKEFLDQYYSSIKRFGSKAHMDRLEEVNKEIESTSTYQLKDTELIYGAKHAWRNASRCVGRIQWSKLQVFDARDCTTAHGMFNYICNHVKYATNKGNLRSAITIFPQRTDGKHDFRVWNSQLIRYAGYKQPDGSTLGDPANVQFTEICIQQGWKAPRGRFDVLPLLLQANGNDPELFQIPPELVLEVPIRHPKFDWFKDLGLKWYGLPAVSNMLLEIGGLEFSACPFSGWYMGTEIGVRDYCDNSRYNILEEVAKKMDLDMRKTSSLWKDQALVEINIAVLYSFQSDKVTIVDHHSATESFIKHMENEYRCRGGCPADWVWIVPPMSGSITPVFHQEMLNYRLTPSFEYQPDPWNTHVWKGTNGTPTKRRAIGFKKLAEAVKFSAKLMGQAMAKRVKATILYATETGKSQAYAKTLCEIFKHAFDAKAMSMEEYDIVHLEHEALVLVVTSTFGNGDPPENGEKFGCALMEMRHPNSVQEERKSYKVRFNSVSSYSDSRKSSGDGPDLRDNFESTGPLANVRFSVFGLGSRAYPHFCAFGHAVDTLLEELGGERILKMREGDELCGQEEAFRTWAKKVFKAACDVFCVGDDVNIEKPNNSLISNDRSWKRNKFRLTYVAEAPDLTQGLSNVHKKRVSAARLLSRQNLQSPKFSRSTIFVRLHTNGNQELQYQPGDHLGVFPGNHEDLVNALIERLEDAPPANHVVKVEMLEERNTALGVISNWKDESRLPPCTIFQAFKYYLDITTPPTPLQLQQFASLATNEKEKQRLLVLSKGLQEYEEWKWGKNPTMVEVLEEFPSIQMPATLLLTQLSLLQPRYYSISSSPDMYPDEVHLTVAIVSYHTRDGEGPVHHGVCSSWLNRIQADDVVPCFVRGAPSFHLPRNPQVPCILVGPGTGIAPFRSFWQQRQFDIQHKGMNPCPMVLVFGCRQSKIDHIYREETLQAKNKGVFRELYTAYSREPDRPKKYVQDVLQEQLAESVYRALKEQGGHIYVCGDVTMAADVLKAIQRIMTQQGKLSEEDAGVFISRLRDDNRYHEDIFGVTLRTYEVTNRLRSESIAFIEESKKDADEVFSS
Assay Summary: NOS enzyme inhibition assay, nNOS
Type: biochemical
Test Parameters: rat nNOS, in vitro; Table 1
The label is y for Ki below 1000 nM and n for Ki equal to or exceeding 1000 nM.

# Molecule, Label Value
rows = [
    ("Cc1ccnc(CCCCO[C@H]2CNC[C@H]2Cc2cc(C)cc(N)n2)c1 [22b]", "n"),
    ("Cc1cc(N)nc(C[C@@H]2CNC[C@@H]2OCCCOc2cc(Cl)cc(C(F)(F)F)c2)c1 [25e]", "y"),
    ("Cc1cc(N)nc(C[C@@H]2CNC[C@@H]2OCCCOc2ccc(F)c(C(F)(F)F)c2)c1 [25a]", "n"),
    ("COc1ccnc(/C=C/CCO[C@H]2CNC[C@H]2Cc2cc(C)cc(N)n2)c1", "y"),
    ("Cc1cc(N)nc(C[C@@H]2CNC[C@@H]2OCCCOc2ccc(F)c(Cl)c2)c1 [25b]", "n"),
    ("Cc1cc(N)nc(C[C@@H]2CNC[C@@H]2OCCCOc2cc(F)cc(C(F)(F)F)c2)c1 [25c]", "n"),
    ("Cc1cc(N)nc(C[C@@H]2CNC[C@@H]2OCCCCc2ccccn2)c1 [22a]", "n"),
    ("Cc1cc(N)nc(C[C@@H]2CNC[C@@H]2OCCCOc2cc(F)cc(Cl)c2)c1 [25d]", "y"),
    ("COc1ccnc(CCCCO[C@H]2CNC[C@H]2Cc2cc(C)cc(N)n2)c1 [22c]", "y"),
    ("Cc1cc(N)nc(C[C@@H]2CNC[C@@H]2OCCCOc2cc(C(F)(F)F)cc(C(F)(F)F)c2)c1 [25f]", "y"),
]

----------
Assayed System: bovine eNOS (Bos taurus, UniProt P29473)
Assay Summary: NOS enzyme inhibition assay, eNOS
Assay type: biochemical
Test Parameters: bovine eNOS, in vitro; Table 1
pKi: −log10 of the molar value.
Rule: pKi of 5 or more gives criterion met; anything lower gives criterion not met.

# Molecule, Assayed System, Label Value
rows = [
    ("COc1ccnc(CCCCO[C@H]2CNC[C@H]2Cc2cc(C)cc(N)n2)c1 [22c]", "bovine eNOS (Bos taurus, UniProt P29473)", "criterion met"),
    ("Cc1cc(N)nc(C[C@@H]2CNC[C@@H]2OCCCCc2ccccn2)c1 [22a]", "bovine eNOS (Bos taurus, UniProt P29473)", "criterion not met"),
    ("Cc1ccnc(CCCCO[C@H]2CNC[C@H]2Cc2cc(C)cc(N)n2)c1 [22b]", "bovine eNOS (Bos taurus, UniProt P29473)", "criterion not met"),
    ("Cc1cc(N)nc(C[C@@H]2CNC[C@@H]2OCCCOc2cc(F)cc(C(F)(F)F)c2)c1 [25c]", "bovine eNOS (Bos taurus, UniProt P29473)", "criterion met"),
    ("Cc1cc(N)nc(C[C@@H]2CNC[C@@H]2OCCCOc2cc(Cl)cc(C(F)(F)F)c2)c1 [25e]", "bovine eNOS (Bos taurus, UniProt P29473)", "criterion met"),
    ("Cc1cc(N)nc(C[C@@H]2CNC[C@@H]2OCCCOc2ccc(F)c(C(F)(F)F)c2)c1 [25a]", "bovine eNOS (Bos taurus, UniProt P29473)", "criterion met"),
    ("Cc1cc(N)nc(C[C@@H]2CNC[C@@H]2OCCCOc2cc(C(F)(F)F)cc(C(F)(F)F)c2)c1 [25f]", "bovine eNOS (Bos taurus, UniProt P29473)", "criterion met"),
    ("COc1ccnc(/C=C/CCO[C@H]2CNC[C@H]2Cc2cc(C)cc(N)n2)c1", "bovine eNOS (Bos taurus, UniProt P29473)", "criterion met"),
]

----------
# key: entry, value: Selectivity n/e
Assayed System: bovine eNOS (Bos taurus)
Assay Summary: NOS enzyme inhibition assay, eNOS
Format: biochemical
Test Parameters: ratio Ki eNOS to Ki nNOS; Table 1

# Molecule, Selectivity n/e
measured = [
    ("Cc1cc(N)nc(C[C@@H]2CNC[C@@H]2OCCCCc2ccccn2)c1 [22a]", 6.8),
    ("Cc1cc(N)nc(C[C@@H]2CNC[C@@H]2OCCCOc2ccc(F)c(Cl)c2)c1 [25b]", 3.1),
    ("Cc1ccnc(CCCCO[C@H]2CNC[C@H]2Cc2cc(C)cc(N)n2)c1 [22b]", 23.6),
    ("Cc1cc(N)nc(C[C@@H]2CNC[C@@H]2OCCCOc2ccc(F)c(C(F)(F)F)c2)c1 [25a]", 2.0),
    ("Cc1cc(N)nc(C[C@@H]2CNC[C@@H]2OCCCOc2cc(F)cc(Cl)c2)c1 [25d]", 19.9),
    ("COc1ccnc(/C=C/CCO[C@H]2CNC[C@H]2Cc2cc(C)cc(N)n2)c1", 6.3),
    ("Cc1cc(N)nc(C[C@@H]2CNC[C@@H]2OCCCOc2cc(C(F)(F)F)cc(C(F)(F)F)c2)c1 [25f]", 5.2),
    ("Cc1cc(N)nc(C[C@@H]2CNC[C@@H]2OCCCOc2cc(F)cc(C(F)(F)F)c2)c1 [25c]", 3.0),
    ("COc1ccnc(CCCCO[C@H]2CNC[C@H]2Cc2cc(C)cc(N)n2)c1 [22c]", 31.5),
    ("Cc1cc(N)nc(C[C@@H]2CNC[C@@H]2OCCCOc2cc(Cl)cc(C(F)(F)F)c2)c1 [25e]", 1.5),
]

----------
Overview of recorded pKi for various molecules
Assayed System: UniProtKB P29477
Assay Summary: NOS enzyme inhibition assay, iNOS
Assay type: biochemical
Test Parameters: murine iNOS, KM 8.2 μM; Ki = IC50/(1 + [S]/KM); Table 2
pKi: −log10 of the molar value.
Measured Parameter: pKi

# Compound Structure, Value
measured = [
    ("Cc1cc(N)nc(C[C@H]2CNC[C@H]2OCCC/C=C/c2cccc(F)c2)c1.Cl.Cl", 3.87),
    ("Cc1cc(N)nc(C[C@H]2CNC[C@H]2OCCCCCc2cccc(F)c2)c1.Cl.Cl", 3.33),
    ("Cc1cc(N)nc(C[C@@H]2CNC[C@@H]2OCCCCNc2ccccn2)c1.Cl.Cl.Cl", 6.31),
    ("Cc1cc(N)nc(C[C@H]2CNC[C@H]2OCCCCNc2ccccn2)c1.Cl.Cl.Cl", 6.01),
    ("Cc1cc(N)nc(C[C@@H]2CNC[C@@H]2OCCC/C=C/c2cccc(F)c2)c1", 4.45),
]

----------
Assayed System: UniProtKB P29477
Assay Summary: NOS enzyme inhibition assay, iNOS
Type: biochemical
Test Parameters: in vitro; Table 1
pKi: −log10 of the molar value.
Please enter Fulfilled where pKi is greater than or equal to 5, and Not fulfilled where it is lower.

# Compound, Label Value
rows = [
    ("Cc1cc(N)nc(C[C@@H]2CNC[C@@H]2OCCCOc2ccc(F)c(Cl)c2)c1 [25b]", "Not fulfilled"),
    ("COc1ccnc(CCCCO[C@H]2CNC[C@H]2Cc2cc(C)cc(N)n2)c1 [22c]", "Fulfilled"),
    ("Cc1cc(N)nc(C[C@@H]2CNC[C@@H]2OCCCOc2cc(Cl)cc(C(F)(F)F)c2)c1 [25e]", "Not fulfilled"),
    ("COc1ccnc(/C=C/CCO[C@H]2CNC[C@H]2Cc2cc(C)cc(N)n2)c1", "Fulfilled"),
    ("Cc1ccnc(CCCCO[C@H]2CNC[C@H]2Cc2cc(C)cc(N)n2)c1 [22b]", "Not fulfilled"),
    ("Cc1cc(N)nc(C[C@@H]2CNC[C@@H]2OCCCOc2cc(F)cc(Cl)c2)c1 [25d]", "Not fulfilled"),
    ("Cc1cc(N)nc(C[C@@H]2CNC[C@@H]2OCCCOc2cc(F)cc(C(F)(F)F)c2)c1 [25c]", "Not fulfilled"),
    ("Cc1cc(N)nc(C[C@@H]2CNC[C@@H]2OCCCOc2ccc(F)c(C(F)(F)F)c2)c1 [25a]", "Not fulfilled"),
]
